meta.source: PubChem BioAssay

assay.notes: blockers of RIG-like receptor reporter activation – cell-based, Sendai virus stimulus, luciferase, 10K MLSCN set, TLR/RLR signaling modifier project, primary screen (AID 602276);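 also: firefly luciferase from ISG56 promoter only with Renilla not read in this screen; 0% = Sendai virus plus DMSO and 100% = medium plus DMSO without virus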
test.conditions: HEK293 RL24 IRF3 luciferase reporter, at 10 µM, stronger effect = higher value
# inhibition listing for each entry below
A number alone suffices; assume %.

Illustrative cases are given below, each with its answer.
INPUT: I would be grateful if you could share the reported inhibition for COc1ccc(OCC(=O)N2CC3(C)CC2CC(C)(C)C3)cc1 (configuration not stated) .
OUTPUT: 20

INPUT: Bench note: what inhibition did CCN(CC(=O)NC1CCS(=O)(=O)C1)C(=O)C(c1ccccc1)c1ccccc1 (configuration not stated) show?
OUTPUT: 6.14

Further cases:
INPUT: Suppose we examine the compound CCC(C)(C(=O)NC1CCCC1)N(Cc1cccs1)C(C)=O (configuration not stated) ; what inhibition value has been reported?
OUTPUT: 14.8

INPUT: What measured inhibition goes with `Nc1nc(SCc2nc3scc(-c4cccs4)c3c(=O)[nH]2)n[nH]1` ?
OUTPUT: 1.51

INPUT: For the compound `CCOC(=O)/C=C1\CC(=O)Nc2nonc2N1` , what inhibition is on record?
OUTPUT: 22

INPUT: Please look up its inhibition: O=C(CSc1nc2c(c(=O)n1-c1ccc(F)cc1)SCC2)NCC1CCCO1 (configuration not stated)
OUTPUT: 17.7

INPUT: What inhibition value was documented for this compound, `COc1ccc(CCNC(=O)C2=COCCO2)cc1` ?
OUTPUT: -14.5

INPUT: Item `COc1ccccc1NC(=O)N1CCN(c2ccccc2F)CC1` has what recorded inhibition?
OUTPUT: 11.9

---

measurement.target: Voltage-gated potassium channel subunit beta-2 (Rattus norvegicus)
assay.notes: enhancers of rat Kvbeta2 NADPH turnover – biochemical, NADPH fluorescence, primary screen (AID 623);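 also: fluorescence intensity change per second fitted from 20 to 320 s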
test.conditions: Recombinant KvBeta, NADPH fluorescence decrease slope, 10 min; at 10 µM; stronger effect = lower value
NADPH fluorescence slope listing for selected compounds.
API note: the answer field is a bare number with no unit suffix.

INPUT: Find the measured NADPH fluorescence slope: item CCOC(=O)C1=C(O)C(=O)N(c2ccc(S(N)(=O)=O)cc2)C1c1ccccc1 (stereo not given) , target or system Voltage-gated potassium channel subunit beta-2 (Rattus norvegicus).
OUTPUT: -1.5e-05

INPUT: I'm curious: which NADPH fluorescence slope was measured for `COc1cc2c(cc1OC)CN(C(=O)COc1ccc(C)c(C)c1)CC2` tested on Voltage-gated potassium channel subunit beta-2 (Rattus norvegicus)?
OUTPUT: 1.3e-05

INPUT: Form field: NADPH fluorescence slope recorded for `CCC(=O)Nc1ccc(Cl)c(NC(=O)C(C)C)c1` with Voltage-gated potassium channel subunit beta-2 (Rattus norvegicus) (enter value)
OUTPUT: -3.3e-05

INPUT: Kindly state the measured NADPH fluorescence slope obtained for `COc1ccc2nc(NC(=O)c3ccoc3C)sc2c1` with Voltage-gated potassium channel subunit beta-2 (Rattus norvegicus).
OUTPUT: -2.2e-05

INPUT: I'm curious: which NADPH fluorescence slope was measured for `O=C(CSc1nnc(-c2c[nH]c3ccccc23)o1)N(Cc1ccccc1)c1ccc(F)cc1` tested on Voltage-gated potassium channel subunit beta-2 (Rattus norvegicus)?
OUTPUT: -2.1e-05

INPUT: # returns recorded NADPH fluorescence slope (system: Voltage-gated potassium channel subunit beta-2 (Rattus norvegicus)) for O=C(CN1C(=O)CC(c2ccco2)Sc2ccccc21)Nc1ccccc1F (stereo not given)
OUTPUT: 1.9e-05

INPUT: Report NADPH fluorescence slope for `COc1ccc(CNC(=O)CN(C(=O)c2ccc(CN3CCOCC3)o2)C2CCCC2)cc1` tested on Voltage-gated potassium channel subunit beta-2 (Rattus norvegicus).
OUTPUT: -4.4e-05

INPUT: Any idea what NADPH fluorescence slope came out for `CCN(CC)c1ccc(-c2c(C#N)c(N)nc(OC)c2C#N)cc1` on Voltage-gated potassium channel subunit beta-2 (Rattus norvegicus)?
OUTPUT: 5.4e-06

INPUT: Param readout = NADPH fluorescence slope; param system = Voltage-gated potassium channel subunit beta-2 (Rattus norvegicus); param query = `CCc1nc(C)ccc1OCC(=O)O` ; response: value
OUTPUT: -6.3e-05

INPUT: What measured NADPH fluorescence slope is associated with `CC(C)n1c(CN2CCN(C)CC2)nc2c1c(=O)n(C)c(=O)n2C` on Voltage-gated potassium channel subunit beta-2 (Rattus norvegicus)?
OUTPUT: -4.5e-05

INPUT: Reported NADPH fluorescence slope for Voltage-gated potassium channel subunit beta-2 (Rattus norvegicus), given `COc1ccc(C(NC(=O)C(C)(C)C)NC(=O)C(C)(C)C)cc1` ?
OUTPUT: -1e-05

---

measurement.target: Voltage-gated potassium channel subunit beta-2 (Rattus norvegicus)
assay.notes: inhibitors of rat Kvbeta2 reductase activity – biochemical, NADPH fluorescence, primary screen (AID 622);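 also: slope of raw intensity against log time taken from 70 to 1610 s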
test.conditions: recombinant KvBeta, 4-cyanobenzaldehyde reduction, at 10 µM, stronger effect = higher value
metric: fluorescence slope
// keep it numeric: no unit symbol after the value

INPUT: Requested read-out: fluorescence slope. Entry: Cc1ccc(NC(=O)C2CCCN(S(=O)(=O)c3cnc[nH]3)C2)cc1C (configuration not stated)
OUTPUT: -0.527

INPUT: I am curious: what fluorescence slope value has been reported for COCCNC(=O)C(c1ccc(C)o1)N(Cc1ccc(F)cc1)C(=O)Cn1nnc2ccccc21 (configuration not stated) ?
OUTPUT: -0.381

Next:
INPUT: What does the data say about its fluorescence slope? Entry: `O=C(CN1CCC(c2nc3ccccc3s2)CC1)NCc1cccs1`
OUTPUT: -0.604

INPUT: # get_value(readout='fluorescence slope', item= `Cc1cccc(C)c1OCc1nnc(SCC(=O)Nc2ccccc2F)o1` )
OUTPUT: -0.558

INPUT: What value of fluorescence slope has been reported for the following compound? `O=C(Cc1cccs1)Nc1nnc(CCc2ccccc2)s1`
OUTPUT: -0.437

INPUT: For the compound `CCOc1cc(C(=O)NCc2ccncc2)cc(OCC)c1OCC` , what fluorescence slope is on record?
OUTPUT: -0.407

INPUT: # get_value(readout='fluorescence slope', item= `Cc1nc(NC(=O)c2csc3ccccc23)sc1C` )
OUTPUT: -0.504

INPUT: Please look up its fluorescence slope: `CCn1c(=O)cc(OCC(=O)Nc2nc(C)cs2)c2ccccc21`
OUTPUT: -0.525

INPUT: Which fluorescence slope reading was recorded for the compound `CCCCNC(=O)Cn1c(=O)n(C)c2ccccc21` ?
OUTPUT: -0.549

INPUT: May I ask what fluorescence slope has been recorded for `O=C(Cn1c(-c2cncs2)nc2ccccc21)NC1CCCC1` ?
OUTPUT: -0.31

INPUT: Would you kindly share the measured fluorescence slope for `CCOC(=O)CN(C(=O)c1ccccc1)c1ccccc1C` ?
OUTPUT: -0.419

INPUT: For the compound shown here, `CCCCN(CCCC)CCn1cnc2c([nH]c3ccc(OC)cc32)c1=O` , give the reported fluorescence slope.
OUTPUT: -0.536

---

assay.notes: endothelial E-selectin expression blockers – imaging, HUVEC, immunofluorescence, MLSMR starter and 10KST1 sets, primary screen (AID 487);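 also: 100% = median nuclei count of all wells on the same plate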
test.conditions: HUVEC TNFalpha-induced E-selectin immunofluorescence imaging, at 2 µM; measured here: cell number, toxicity
nuclei count overview
Report the figure in % without appending any unit label.

These solved cases illustrate the format of a correct answer.
INPUT: I have this molecule here, `CC(C)(C)SCCNC(=O)CSc1ccccc1` , and I need its recorded nuclei count.
OUTPUT: 78.7

INPUT: Report nuclei count for `Cc1ccc(-c2oc3ccccc3c(=O)c2O)cc1` please.
OUTPUT: 105

INPUT: For the molecule shown here, CCCNC(=O)NC1C(NC(=O)NCCC)N(C)C(=O)N1C (stereo unspecified) , give the reported nuclei count.
OUTPUT: 116

INPUT: Value lookup for nuclei count; key = `O=C(OCC(=O)N1CCC(Cc2ccccc2)CC1)c1ccc[nH]c1=O`
OUTPUT: 88.7

INPUT: Using the record for CC1CC(NC(=O)c2cnc3n(c2=O)CCS3)CC(C)(C)C1 (stereo unspecified) , report its nuclei count.
OUTPUT: 112

Continuing:
INPUT: Can you share its nuclei count? I mean this molecule: `COc1cccc(-c2nnc(NC(C)=O)o2)c1`
OUTPUT: 118

---

Here the recorded cell count is given for each entry.
assay.notes: inhibitors of TNFa-induced NFkB p65 translocation, primary screen, imaging, HUVEC, MLSMR starter and 10KST1 sets (AID 438);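 also: compound added about 3h40 before a 20 min TNFalpha stimulation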
test.conditions: HUVEC TNFa-induced p65 nuclear translocation; measured here: nuclei count (cytotoxicity indicator), at 2.08 µM
// print number alone

Previously resolved entries follow.
INPUT: GET /values?readout=cell count&item= `O=C(CSc1nnnn1-c1ccc2c(c1)OCO2)NCc1cccs1`
OUTPUT: 240

INPUT: So what's the measured cell count for this one? `CN(Cc1ccco1)C(=O)Cn1c(=O)oc2cc(S(=O)(=O)NCc3ccccc3)ccc21`
OUTPUT: 924

INPUT: Name the recorded cell count for `S=C(c1ccc(-c2cc(Cl)ccc2Cl)o1)N1CCOCC1` .
OUTPUT: 365

INPUT: I would be grateful if you could share the reported cell count for `COc1ccc(OCc2nc(C#N)c(N3CCN(c4ccc(OC)cc4)CC3)o2)cc1` .
OUTPUT: 479

INPUT: # input compound: O=C(NCc1cccnc1)C1c2ccccc2C(=O)N1Cc1ccco1 (stereo not drawn) ; wanted: its cell count
OUTPUT: 408

INPUT: // query cell count value for entry `C/C(N)=C(/C#N)C(=O)CSc1nnc(Nc2c(C)cccc2C)s1`
OUTPUT: 354

INPUT: Form field: reported cell count of `Cc1ccc(S(=O)(=O)NCCOC(=O)Nc2sc(=S)n(C)c2C)cc1`
OUTPUT: 466

INPUT: Entry Cc1cccc(C(OC(=O)c2ccco2)C(=O)NCc2ccccc2)n1 (stereo not drawn) has what cell count?
OUTPUT: 724

INPUT: For the compound COCc1[nH]nc2c1C(c1cc(OC)c(O)c(OC)c1)C(C#N)=C(N)O2 (stereo not drawn) , what cell count is on record?
OUTPUT: 397

INPUT: Dear colleague, I am looking for the recorded cell count of the following compound: `Cn1nnnc1SCC(=O)NC1CCCCC1`
OUTPUT: 228

Now look at this entry.
INPUT: Would you mind telling me what cell count value was observed for `CCOc1ccc(OCCCCN(C)C)cc1` ?
OUTPUT: 386
